tested on: Caco-2; test: cell viability relative to DMSO; higher = less toxic; details: 72 h; 1000 nM
cell viability overview
Number only, in %; omit the unit.

CC(=O)N(CC(O)CN(C(C)=O)c1c(I)c(C(=O)NCC(O)CO)c(I)c(C(=O)NCC(O)CO)c1I)c1c(I)c(C(=O)NCC(O)CO)c(I)c(C(=O)NCC(O)CO)c1I (stereo not given) [iodixanol] ... 102

Dear colleague, please send me the reported cell viability for O=C(NC[C@H](O)CN1CCc2ccccc2C1)c1cc(NC2COC2)ncn1 when you can.
95.5

Dear colleague, please send me the reported cell viability for C[C@]12CCC(=O)C=C1CC[C@@H]1[C@@H]2[C@@H](O)C[C@@]2(C)[C@H]1CC[C@]2(O)C(=O)COC(=O)CCC(=O)O [hydrocortisone-hemisuccinate] when you can.
106

Dear colleague, please send me the reported cell viability for NC(=O)c1ccc(F)c2c1C[C@@H](N(C1CCC1)C1CCC1)CO2 [robalzotan] when you can.
105
